Target or system human glioblastoma astrocytoma (U373) cells: recorded IC50 listed per item.
Please state the figure in µM; there is no need to write the unit.

Specify the recorded IC50 for `COc1ccc(/C=C/c2ccnc(-c3cc(/C=C/c4ccc(OC)cc4)ccn3)c2)cc1.COc1ccc(/C=C/c2ccnc(-c3cc(/C=C/c4ccc(OC)cc4)ccn3)c2)cc1.F[P-](F)(F)(F)(F)F.F[P-](F)(F)(F)(F)F.[Ru+2].c1ccc(-c2ccccn2)nc1` , system: human glioblastoma astrocytoma (U373) cells.
17.8

Specify the recorded IC50 for `CN(C)c1ccc(/C=C/c2ccnc(-c3cc(/C=C/c4ccc(N(C)C)cc4)ccn3)c2)cc1.F[P-](F)(F)(F)(F)F.F[P-](F)(F)(F)(F)F.[Ru+2].c1ccc(-c2ccccn2)nc1.c1ccc(-c2ccccn2)nc1` , system: human glioblastoma astrocytoma (U373) cells.
10.7

Specify the recorded IC50 for `CN(C)c1ccc(/C=C/c2ccnc(-c3cc(/C=C/c4ccc(N(C)C)cc4)ccn3)c2)cc1.F[P-](F)(F)(F)(F)F.F[P-](F)(F)(F)(F)F.[Ru+2].c1cnc2c(c1)ccc1cccnc12.c1cnc2c(c1)ccc1cccnc12` , system: human glioblastoma astrocytoma (U373) cells.
13.3

Specify the recorded IC50 for `COc1ccc(/C=C/c2ccnc(-c3cc(/C=C/c4ccc(OC)cc4)ccn3)c2)cc1.F[P-](F)(F)(F)(F)F.F[P-](F)(F)(F)(F)F.[Ru+2].c1cnc2c(c1)ccc1cccnc12.c1cnc2c(c1)ccc1cccnc12` , system: human glioblastoma astrocytoma (U373) cells.
2.1
